// data source = ChEMBL document CHEMBL3763124

# system_tested: Bifunctional epoxide hydrolase 2 (Homo sapiens) (UniProt P34913)
# Sequence (P34913 whole entry): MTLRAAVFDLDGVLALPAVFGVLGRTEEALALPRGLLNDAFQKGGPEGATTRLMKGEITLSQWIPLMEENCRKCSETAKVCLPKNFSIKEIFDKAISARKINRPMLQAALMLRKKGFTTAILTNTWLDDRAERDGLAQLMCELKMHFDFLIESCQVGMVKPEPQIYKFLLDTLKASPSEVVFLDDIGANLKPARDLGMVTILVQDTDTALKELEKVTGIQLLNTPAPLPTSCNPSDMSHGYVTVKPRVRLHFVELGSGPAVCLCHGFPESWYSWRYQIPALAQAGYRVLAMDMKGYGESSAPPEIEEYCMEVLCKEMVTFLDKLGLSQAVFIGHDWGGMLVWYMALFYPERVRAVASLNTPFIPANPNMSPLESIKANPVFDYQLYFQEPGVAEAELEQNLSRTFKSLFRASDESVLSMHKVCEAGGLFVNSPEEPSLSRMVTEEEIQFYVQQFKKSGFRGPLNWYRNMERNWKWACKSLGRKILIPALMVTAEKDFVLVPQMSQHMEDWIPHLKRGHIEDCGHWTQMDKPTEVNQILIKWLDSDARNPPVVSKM
# test_summary: Inhibition of human recombinant sEH using PHOME as substrate at 10 uM preincubated for 30 mins followed by substrate addition measured for 30 mins by fluorescence-based assay
Binary classification by inhibition, with 20% as an inclusive lower bound for Satisfied; all other cases are Not satisfied.

{"compound": "CCC(Cc1ccc(C(=O)NCc2ccccc2C)cc1)C(=O)O (configuration not stated)", "assigned_label": "Satisfied"}
{"compound": "CCC(Cc1ccc(C(=O)NCc2ccc(F)cc2)cc1)C(=O)O (configuration not stated)", "assigned_label": "Satisfied"}
{"compound": "CCC(Cc1ccc(C(=O)NCc2ccccc2Br)cc1)C(=O)O (configuration not stated)", "assigned_label": "Satisfied"}
{"compound": "CCC(Cc1ccc(C(=O)NCc2ccccc2)cc1)C(=O)O (configuration not stated)", "assigned_label": "Not satisfied"}
{"compound": "CCC(Cc1ccc(C(=O)NCc2ccccc2OC(F)(F)F)cc1)C(=O)O (configuration not stated)", "assigned_label": "Satisfied"}
{"compound": "CCC(Cc1ccc(C(=O)NCc2ccc(OC)cc2)cc1)C(=O)O (configuration not stated)", "assigned_label": "Satisfied"}

====

List of CL/F values.
# test_summary: Apparent oral clearance in RjOrl:Swiss (CD-1) mouse plasma at 30 mg/kg
# Type: ADME, organism-based

{"compound": "CCC(Cc1ccc(C(=O)NCc2ccccc2C(F)(F)F)cc1)C(=O)O (configuration not stated)", "CL/F": "31.7 mL/min/kg"}
{"compound": "CCC(Cc1ccc(C(=O)NCc2ccc(OC)cc2C(F)(F)F)cc1)C(=O)O (configuration not stated)", "CL/F": "5 mL/min/kg"}

====

# test_summary: AUC (0 to infinity) in RjOrl:Swiss (CD-1) mouse plasma at 30 mg/kg, po
# Assay type: ADME, organism-based
# Set-up: dose 30 mg/kg, time infinity, route oral

{"compound": "CCC(Cc1ccc(C(=O)NCc2ccc(OC)cc2C(F)(F)F)cc1)C(=O)O (stereo unspecified)", "AUC(0-inf)": "94400 ng·h/mL"}

====

# system_tested: Bifunctional epoxide hydrolase 2 (Homo sapiens, UniProt P34913)
# test_summary: Inhibition of human recombinant sEH using PHOME as substrate preincubated for 30 mins followed by substrate addition measured for 30 mins by fluorescence-based assay
Label yes when IC50 is strictly below 4000 nM; otherwise label no.

{"compound": "CCC(Cc1ccc(C(=O)NCc2ccc(Cl)cc2)cc1)C(=O)O (configuration not stated)", "assigned_label": "yes"}
{"compound": "CCOC(=O)C(CC)Cc1ccc(C(=O)NCc2ccccc2OC(F)(F)F)cc1 (configuration not stated)", "assigned_label": "yes"}
{"compound": "CCOC(=O)C(CC)Cc1ccc(C(=O)NCc2ccc(Cl)cc2)cc1 (configuration not stated)", "assigned_label": "yes"}
{"compound": "CCC(Cc1ccc(C(=O)NCc2ccc(C(F)(F)F)cc2)cc1)C(=O)O (configuration not stated)", "assigned_label": "no"}
{"compound": "CCOC(=O)C(CC)Cc1ccc(C(=O)NCc2ccc(OC)cc2)cc1 (configuration not stated)", "assigned_label": "yes"}
{"compound": "CCC(Cc1ccc(C(=O)NCc2ccc(Oc3ccccc3)cc2)cc1)C(=O)O (configuration not stated)", "assigned_label": "no"}
{"compound": "CCC(Cc1ccc(C(=O)NCc2ccc(F)cc2C(F)(F)F)cc1)C(=O)O (configuration not stated)", "assigned_label": "yes"}
{"compound": "CCOC(=O)C(CC)Cc1ccc(C(=O)NCc2ccc(OC(F)(F)F)cc2)cc1 (configuration not stated)", "assigned_label": "yes"}
{"compound": "CCOC(=O)C(CC)Cc1ccc(C(=O)NCc2ccccc2)cc1 (configuration not stated)", "assigned_label": "no"}
{"compound": "CCOC(=O)C(CC)Cc1ccc(C(=O)NCc2ccccc2Cl)cc1 (configuration not stated)", "assigned_label": "yes"}
{"compound": "CCOC(=O)C(CC)Cc1ccc(C(=O)NCc2ccccc2C)cc1 (configuration not stated)", "assigned_label": "yes"}
{"compound": "CCOC(=O)C(CC)Cc1ccc(C(=O)NCc2ccc(C(F)(F)F)cc2)cc1 (configuration not stated)", "assigned_label": "yes"}
{"compound": "CCC(Cc1ccc(C(=O)NCc2ccc(OC(F)(F)F)cc2)cc1)C(=O)O (configuration not stated)", "assigned_label": "no"}
{"compound": "CCOC(=O)C(CC)Cc1ccc(C(=O)NCc2ccc(OC)cc2C(F)(F)F)cc1 (configuration not stated)", "assigned_label": "yes"}
{"compound": "CCOC(=O)C(CC)Cc1ccc(C(=O)NCc2ccc(F)cc2)cc1 (configuration not stated)", "assigned_label": "yes"}
{"compound": "CCOC(=O)C(CC)Cc1ccc(C(=O)NCc2ccc(F)cc2C(F)(F)F)cc1 (configuration not stated)", "assigned_label": "yes"}

====

# system_tested: Peroxisome proliferator-activated receptor delta (Homo sapiens) (UniProt Q03181)
# Sequence (Q03181 whole entry): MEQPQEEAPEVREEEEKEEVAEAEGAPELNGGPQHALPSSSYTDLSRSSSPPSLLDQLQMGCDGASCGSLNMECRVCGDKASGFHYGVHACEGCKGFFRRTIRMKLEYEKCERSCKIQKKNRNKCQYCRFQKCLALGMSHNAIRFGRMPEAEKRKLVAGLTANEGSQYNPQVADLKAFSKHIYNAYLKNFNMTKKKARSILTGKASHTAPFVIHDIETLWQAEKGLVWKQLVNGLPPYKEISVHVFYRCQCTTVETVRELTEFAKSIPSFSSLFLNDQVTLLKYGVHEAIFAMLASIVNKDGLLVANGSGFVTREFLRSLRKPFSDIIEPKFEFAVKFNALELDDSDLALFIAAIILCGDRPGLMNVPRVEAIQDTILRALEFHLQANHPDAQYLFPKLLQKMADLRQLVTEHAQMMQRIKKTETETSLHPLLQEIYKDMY
# test_summary: Transactivation of human PPARdelta expressed in African green monkey COS7 cells at 10 uM incubated overnight by dual-glo luciferase reporter assay
# Format: cell-based
# particulars: COS-7
Calls of active or inactive are those of the source. The calls are words filed in the database; no cut-off is given here.

{"compound": "CCCC(Cc1ccc(C(=O)NCc2ccccc2C(F)(F)F)cc1)C(=O)O (stereo not given)", "Emax": "inactive"}
{"compound": "O=C(NCc1ccccc1C(F)(F)F)c1ccc(C2CC2C(=O)O)cc1 (stereo not given)", "Emax": "inactive"}
{"compound": "CCC(Cc1cccc(C(=O)NCc2ccccc2C(F)(F)F)c1)C(=O)O (stereo not given)", "Emax": "inactive"}
{"compound": "O=C(NCc1ccccc1C(F)(F)F)c1ccc(-c2nnn[nH]2)cc1", "Emax": "inactive"}
{"compound": "CCOC(=O)C(CC)Cc1ccc(C(=O)NCc2ccccc2C(F)(F)F)cc1 (stereo not given)", "Emax": "inactive"}
{"compound": "O=C(O)CCc1ccc(C(=O)NCc2ccccc2C(F)(F)F)cc1", "Emax": "inactive"}
{"compound": "CCC(Cc1ccc(C(=O)NCc2ccc(Oc3ccccc3)cc2)cc1)C(=O)O (stereo not given)", "Emax": "20%"}
{"compound": "CCOC(=O)C(CC)Cc1cccc(C(=O)NCc2ccccc2C(F)(F)F)c1 (stereo not given)", "Emax": "inactive"}
{"compound": "CCCC(Cc1ccc(C(=O)NCc2ccccc2C(F)(F)F)cc1)C(=O)OCC (stereo not given)", "Emax": "inactive"}
{"compound": "O=C(NCc1ccccc1C(F)(F)F)c1ccc(CC(C(=O)O)c2ccccc2)cc1 (stereo not given)", "Emax": "inactive"}

====

Listed here are compounds together with their documented solubility.
# test_summary: Solubility of the compound in water by microplate reader analysis
# Assay type: physicochemical

{"compound": "CCC(Cc1ccc(C(=O)NCc2ccc(OC)cc2)cc1)C(=O)O (stereo unspecified)", "solubility (µM)": 375}
{"compound": "CCOC(=O)CCc1ccc(C(=O)NCc2ccccc2C(F)(F)F)cc1", "solubility (µM)": 3.75}
{"compound": "O=C(NCc1ccccc1C(F)(F)F)c1ccc(CC(C(=O)O)c2ccccc2)cc1 (stereo unspecified)", "solubility (µM)": 75}
{"compound": "CCOC(=O)C(Cc1ccc(C(=O)NCc2ccccc2C(F)(F)F)cc1)c1ccccc1 (stereo unspecified)", "solubility (µM)": 3.75}
{"compound": "CCOC(=O)C(CC)Cc1ccc(C(=O)NCc2ccc(OC)cc2)cc1 (stereo unspecified)", "solubility (µM)": 7.5}
{"compound": "CC(Cc1ccc(C(=O)NCc2ccccc2C(F)(F)F)cc1)C(=O)O (stereo unspecified)", "solubility (µM)": 375}

====

# test_summary: Cmax in RjOrl:Swiss (CD-1) mouse plasma at 30 mg/kg, po
# Assay type: ADME, organism-based
# Parameters: dose 30 mg/kg, route oral

{"compound": "CCC(Cc1ccc(C(=O)NCc2ccc(OC)cc2C(F)(F)F)cc1)C(=O)O (stereo unspecified)", "u": "ng/mL", "Cmax": 29100}

====

# test_summary: Solubility of the compound in water by microplate reader analysis
# Assay type: physicochemical

{"compound": "O=C(O)c1ccc(-c2ccc(C(=O)NCc3ccccc3C(F)(F)F)cc2)cc1", "u": "µM", "solubility": 3.75}
{"compound": "CCC(Cc1ccc(C(=O)NCc2ccc(Cl)cc2)cc1)C(=O)O (stereo not given)", "u": "µM", "solubility": 375}
{"compound": "CCCC(Cc1ccc(C(=O)NCc2ccccc2C(F)(F)F)cc1)C(=O)O (stereo not given)", "u": "µM", "solubility": 375}
{"compound": "CCC(Cc1ccc(C(=O)NCc2ccccc2OC(F)(F)F)cc1)C(=O)O (stereo not given)", "u": "µM", "solubility": 375}
{"compound": "CCOC(=O)C(CC)Cc1ccc(C(=O)NCc2ccccc2Br)cc1 (stereo not given)", "u": "µM", "solubility": 20}
